target: Short transient receptor potential channel 4 (Mus musculus); experiment: positive allosteric modulators of TRPC4, primary screen, cell-based, mouse TRPC4beta, HEK293 mu-opioid, Fluo-4 calcium (AID 2227); conditions: DAMGO EC20, Fluo-4 Ca2+ flux, at 10 µM
The campaign covered roughly 310,000 compounds. About 1,300 (0.42%) were called active.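 How the source made its calls: active means B-score of calcium response area above 5 SD of library B-scores, with initial fluorescence ratio within 5 SD of library; inactive means the rest.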 The sample holds actives, similar compounds and a random draw of the others, so the mix is not that of the screen.
Outcomes: active, inactive

# compound, system.tested, label
records = [
    ("O=C(CN1CCN(S(=O)(=O)c2ccc(F)cc2)CC1)Nc1ccccc1F", "Short transient receptor potential channel 4 (Mus musculus)", "inactive"),
    ("O=C(O)c1cc2ccccc2c(=O)s1", "Short transient receptor potential channel 4 (Mus musculus)", "inactive"),
    ("O=C(c1ccc(Cl)s1)N(Cc1nnc(-c2ccccc2Cl)o1)C1CC1", "Short transient receptor potential channel 4 (Mus musculus)", "inactive"),
    ("O=C1C(=O)N(CCN2CCOCC2)C(c2cccc(Cl)c2)/C1=C(/O)c1ccc2c(c1)OCO2 (configuration not stated)", "Short transient receptor potential channel 4 (Mus musculus)", "inactive"),
    ("Cc1cccc(CCNC(=O)Cn2ncc3c([nH]c4ccc(C)cc43)c2=O)c1", "Short transient receptor potential channel 4 (Mus musculus)", "inactive"),
    ("O=C(Nc1cccc(Cl)c1)c1cc([N+](=O)[O-])ccc1N1CCN(CCO)CC1", "Short transient receptor potential channel 4 (Mus musculus)", "inactive"),
    ("CCOc1ccccc1NS(=O)(=O)c1c[nH]c(C(=O)OC)c1", "Short transient receptor potential channel 4 (Mus musculus)", "inactive"),
    ("CC(=O)Nc1ccc(N2CCOCC2)c(C(=O)Nc2cccc(C)c2)c1", "Short transient receptor potential channel 4 (Mus musculus)", "inactive"),
    ("Cc1ccc(Cl)cc1N1CCN(C(=O)c2cccc3c(=O)c(C)c(-c4ccccc4)oc23)CC1", "Short transient receptor potential channel 4 (Mus musculus)", "active"),
    ("COC(=O)c1ccc(C(=O)OC)c(NC(=S)N2CCN(c3cc(Cl)ccc3C)CC2)c1", "Short transient receptor potential channel 4 (Mus musculus)", "inactive"),
    ("Cc1ccc(NC(=S)NC(=O)c2ccc(-c3ccccc3)cc2)cc1", "Short transient receptor potential channel 4 (Mus musculus)", "inactive"),
    ("COc1cc(C(=S)N2CCOCC2)ccc1O", "Short transient receptor potential channel 4 (Mus musculus)", "active"),
    ("NC(=O)C1(N2CCCCC2)CCN(C(=O)c2ccc(C#Cc3ccccc3)o2)CC1", "Short transient receptor potential channel 4 (Mus musculus)", "inactive"),
    ("COc1ccc(C)cc1NC(=S)N1CCOCC1", "Short transient receptor potential channel 4 (Mus musculus)", "inactive"),
    ("COC(=O)c1ccccc1N=Nc1c(C)[nH][nH]c1=O", "Short transient receptor potential channel 4 (Mus musculus)", "active"),
    ("COCCCNC(=S)NC(=O)c1ccccc1", "Short transient receptor potential channel 4 (Mus musculus)", "inactive"),
    ("CCOC(=O)C1=C(NC(=S)NC(=O)c2ccccc2)c2ccccc2CC1(C)C", "Short transient receptor potential channel 4 (Mus musculus)", "active"),
    ("COc1cc(CCC(=O)Nc2ccncc2Cl)cc(OC)c1OC", "Short transient receptor potential channel 4 (Mus musculus)", "inactive"),
    ("C=CCSc1nnc(N2C(=O)C(O)=C(C(=O)c3ccco3)C2c2ccc(F)cc2)s1 (configuration not stated)", "Short transient receptor potential channel 4 (Mus musculus)", "inactive"),
    ("CC(Sc1nn(-c2ccc(Cl)cc2)c(=S)s1)C(=O)NCC1CCCO1 (configuration not stated)", "Short transient receptor potential channel 4 (Mus musculus)", "inactive"),
    ("Cc1cccc(N2C(=O)SC(SC(=Nc3ccccc3)Nc3ccccc3)C2=O)c1 (configuration not stated)", "Short transient receptor potential channel 4 (Mus musculus)", "inactive"),
    ("O=S(=O)(c1ccc(F)cc1)N1CCN(Cc2ccccc2C(F)(F)F)CC1", "Short transient receptor potential channel 4 (Mus musculus)", "active"),
]
